test system: HT-29; assay: Growth inhibition of human HT29 cells after 48 hrs; assay type: functional; conditions: HT-29, 48 h
Measured GI50 of individual entries
Number in µM, nothing else.

Cn1c2ccccc2c2c(=O)n(CCCC(=O)NCCc3c[nH]cn3)c3c(-c4ccccc4)nnn3c21
8.51

Q) Give its GI50 value. Item: "CCCCN(CCCC)CCCn1c(=O)c2c3ccccc3n(C)c2n2nnc(-c3ccccc3)c12"
A) 7.76

---

test system: NCI-H460; test: Growth inhibition of human NCI-H460 cells after 48 hrs; assay type: functional; settings: NCI-H460, 48 h
readout-type: GI50 (µM)
Number in µM, nothing else.

Solved entries:
Cn1c2ccccc2c2c(=O)n(CCCC(=O)NCC(=O)N(C(=O)NC3CCCCC3)C3CCCCC3)c3c(-c4ccccc4)nnn3c21
32.4
CCCCN(CCCC)CCCn1c(=O)c2c3ccccc3n(C)c2n2nnc(-c3ccccc3)c12
40.7

Q) Give its GI50 value. Item: "Cn1c2ccccc2c2c(=O)n(CCCC(=O)NCCc3c[nH]cn3)c3c(-c4ccccc4)nnn3c21"
A) 11

---

tested on: OVCAR-8; assay: Growth inhibition of human OVCAR8 cells after 48 hrs; type: functional; conditions: OVCAR-8, 48 h
readout-type: GI50 (µM)
Number in µM, nothing else.

Solved entries:
CCCCN(CCCC)CCCn1c(=O)c2c3ccccc3n(C)c2n2nnc(-c3ccccc3)c12
39.8
CCOC(=O)CNC(=O)CCCn1c(=O)c2c3ccccc3n(C)c2n2nnc(-c3ccccc3)c12
25.1

From here, focus on the item given below.
Q) Please provide the recorded GI50 for "Cn1c2ccccc2c2c(=O)n(CCCC(=O)NCCc3c[nH]cn3)c3c(-c4ccccc4)nnn3c21" , tested on OVCAR-8.
A) 10

---

tested on: UO-31; test: Growth inhibition of human UO31 cells after 48 hrs; format: functional; settings: UO-31, 48 h, read-out: pTGI (converted)
readout-type: TGI (µM)
Number in µM, nothing else.

Cn1c2ccccc2c2c(=O)n(CCCC(=O)NCCc3c[nH]cn3)c3c(-c4ccccc4)nnn3c21
14.8

From here, focus on the item given below.
Q) Give its TGI value. Item: "CCCCN(CCCC)CCCn1c(=O)c2c3ccccc3n(C)c2n2nnc(-c3ccccc3)c12"
A) 46.8

---

system: NCI-H23; assay: Growth inhibition of human NCI-H23 cells after 48 hrs; type: functional; conditions: Homo sapiens, NCI-H23, 48 h
Measured GI50 of individual entries
Number in µM, nothing else.

CCOC(=O)CNC(=O)CCCn1c(=O)c2c3ccccc3n(C)c2n2nnc(-c3ccccc3)c12
11.7

From here, focus on the item given below.
Q) Give its GI50 value. Item: "Cn1c2ccccc2c2c(=O)n(CCCC(=O)NCC(=O)N(C(=O)NC3CCCCC3)C3CCCCC3)c3c(-c4ccccc4)nnn3c21"
A) 15.5

---

test system: HCT-15; assay: Growth inhibition of human HCT15 cells after 48 hrs; type: functional; conditions: HCT-15, 48 h, read-out: pTGI
Measured TGI of individual entries

Solved entries:
Cn1c2ccccc2c2c(=O)n(CCCC(=O)NCCc3c[nH]cn3)c3c(-c4ccccc4)nnn3c21
43.7 µM
CCCCN(CCCC)CCCn1c(=O)c2c3ccccc3n(C)c2n2nnc(-c3ccccc3)c12
> 100 µM
CCOC(=O)CNC(=O)CCCn1c(=O)c2c3ccccc3n(C)c2n2nnc(-c3ccccc3)c12
> 50.1 µM

From here, focus on the item given below.
Q) Give its TGI value. Item: "Cn1c2ccccc2c2c(=O)n(CCCC(=O)NCC(=O)N(C(=O)NC3CCCCC3)C3CCCCC3)c3c(-c4ccccc4)nnn3c21"
A) > 100 µM
